system: Hemoglobin HbA (Homo sapiens) (UniProt P69905+P68871)
Sequence (P68871 2-147 partner limits assumed): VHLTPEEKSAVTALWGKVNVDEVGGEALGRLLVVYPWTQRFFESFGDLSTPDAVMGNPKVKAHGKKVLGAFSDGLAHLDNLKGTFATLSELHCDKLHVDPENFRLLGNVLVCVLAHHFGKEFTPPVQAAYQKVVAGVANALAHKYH
Sequence (P69905 2-142 limits assumed): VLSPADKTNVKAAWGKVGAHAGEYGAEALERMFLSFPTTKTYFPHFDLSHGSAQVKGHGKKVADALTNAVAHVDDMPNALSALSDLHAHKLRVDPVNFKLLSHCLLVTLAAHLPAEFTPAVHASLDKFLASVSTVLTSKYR
assay_comment: Ability to right-shift the oxygen equilibrium curves (OECs) quantified by ability to increase in P50 in whole blood analyses.
Assay type: functional, tissue-based
reported_metric: P50c (mmHg)

Cc1cc(C)cc(NC(=O)Cc2ccc(OC3(C(=O)N[C@@H](CCCCN)C(=O)O)CCCC3)cc2)c1 :: 28.3
Cc1cc(C)cc(NC(=O)Cc2ccc(OC3(C(=O)N[C@H](C(=O)O)C(C)C)CCCC3)cc2)c1 :: 25.7
Cc1cc(C)cc(NC(=O)Cc2ccc(OC3(C(=O)N[C@@H](Cc4ccc5[nH]ccc5c4)C(=O)O)CCCC3)cc2)c1 :: 27.9
Cc1cc(C)cc(NC(=O)Cc2ccc(OC3(C(=O)N[C@@H](CO)C(=O)O)CCCC3)cc2)c1 :: 26.2
Cc1cc(C)cc(NC(=O)Cc2ccc(OC3(C(=O)N[C@H](Cc4ccccc4)C(=O)O)CCCC3)cc2)c1 :: 28.7
Cc1cc(C)cc(NC(=O)Cc2ccc(OC3(C(=O)N[C@H](Cc4ccc5[nH]ccc5c4)C(=O)O)CCCC3)cc2)c1 :: 28.7
CSCC[C@@H](NC(=O)C1(Oc2ccc(CC(=O)Nc3cc(C)cc(C)c3)cc2)CCCC1)C(=O)O :: 24.5
Cc1cc(C)cc(NC(=O)Cc2ccc(OC3(C(=O)N[C@@H](CC(C)C)C(=O)O)CCCC3)cc2)c1 :: 29.4
CSCC[C@H](NC(=O)C1(Oc2ccc(CC(=O)Nc3cc(C)cc(C)c3)cc2)CCCC1)C(=O)O :: 27.1
Cc1cc(C)cc(NC(=O)Cc2ccc(OC3(C(=O)O)CCCC3)cc2)c1 :: 28.9
Cc1cc(C)cc(NC(=O)Cc2ccc(OC3(C(=O)N[C@@H](C(=O)O)C(C)C)CCCC3)cc2)c1 :: 26.7

====

system: Hemoglobin HbA (Homo sapiens) (UniProt P69905+P68871)
assay_comment: The Hill coefficient at 50% saturation (n50) between 40 and 60% oxygen saturation (n50 control value with no effector present, 2.7).
Type: protein-complex assay
reported_metric: Hill coefficient (n50)

Cc1cc(C)cc(NC(=O)Cc2ccc(OC3(C(=O)N[C@H](C(=O)O)C(C)C)CCCC3)cc2)c1 :: 2.7
Cc1cc(C)cc(NC(=O)Cc2ccc(OC3(C(=O)N[C@H](CCC(=O)O)C(=O)O)CCCC3)cc2)c1 :: 2.6
Cc1cc(C)cc(NC(=O)Cc2ccc(OC3(C(=O)N[C@@H](CO)C(=O)O)CCCC3)cc2)c1 :: 2.6
CSCC[C@H](NC(=O)C1(Oc2ccc(CC(=O)Nc3cc(C)cc(C)c3)cc2)CCCC1)C(=O)O :: 2.6
Cc1cc(C)cc(NC(=O)Cc2ccc(OC3(C(=O)N[C@H](CCCCNC(=O)OCc4ccccc4)C(=O)O)CCCC3)cc2)c1 :: 2.5
Cc1cc(C)cc(NC(=O)Cc2ccc(OC3(C(=O)N[C@@H](Cc4ccc5[nH]ccc5c4)C(=O)O)CCCC3)cc2)c1 :: 2.3
Cc1cc(C)cc(NC(=O)Cc2ccc(OC3(C(=O)N[C@H](C)C(=O)O)CCCC3)cc2)c1 :: 2.6
Cc1cc(C)cc(NC(=O)Cc2ccc(OC3(C(=O)N[C@@H](C)C(=O)O)CCCC3)cc2)c1 :: 2.7
Cc1cc(C)cc(NC(=O)Cc2ccc(OC3(C(=O)N[C@H](CSCc4ccccc4)C(=O)O)CCCC3)cc2)c1 :: 2.1
Cc1cc(C)cc(NC(=O)Cc2ccc(OC3(C(=O)N[C@H](CCCCN)C(=O)O)CCCC3)cc2)c1 :: 2.4
Cc1cc(C)cc(NC(=O)Cc2ccc(OC3(C(=O)NCC(=O)O)CCCC3)cc2)c1 :: 2.6
CSCC[C@@H](NC(=O)C1(Oc2ccc(CC(=O)Nc3cc(C)cc(C)c3)cc2)CCCC1)C(=O)O :: 2.8
